Test system: SK-MEL-28
Test: SRB anticancer assay, melanoma
Type: cell-based, human
Settings: Homo sapiens, SK-MEL-28, 48 h
Reported values of GI50 for individual entries

| Structure notation | Value relation sign | GI50, µM |
| --- | --- | --- |
| COc1cc(OC)cc(-c2cncn2-c2ccc(-c3nc4cc(OC)c(OC)c(OC)c4s3)cc2)c1 | = | 31.6 |
| COc1cc(-c2cncn2-c2ccc(-c3nc4ccc(F)cc4s3)cc2)ccc1F | = | 35.1 |
| COc1cc(OC)c2sc(-c3ccc(-n4cncc4-c4ccc(OC)c(OC)c4)cc3)nc2c1 | > | 100 |
| COc1cc2nc(-c3ccc(-n4cncc4-c4ccc(N)cc4)cc3)sc2c(OC)c1OC | > | 100 |
| COc1ccc(-c2cncn2-c2ccc(-c3nc4cc(OC)c(OC)c(OC)c4s3)cc2)cc1N | = | 13.7 |
| COc1cc(OC)cc(-c2cncn2-c2ccc(-c3nc4cc(OC)cc(OC)c4s3)cc2)c1 | > | 100 |

----------
Measured GI50 values are reported for all entries that follow.
Tested on: EKVX
Test: SRB anticancer assay, non-small lung
Format: cell-based, human
Settings: Homo sapiens, 48 h

| Structure notation | Target desc | GI50 |
| --- | --- | --- |
| COc1cc(OC)cc(-c2cncn2-c2ccc(-c3nc4cc(OC)c(OC)c(OC)c4s3)cc2)c1 | EKVX | 1.87 µM |
| COc1cc2nc(-c3ccc(-n4cncc4-c4ccc(N)cc4)cc3)sc2c(OC)c1OC | EKVX | 2.49 µM |
| COc1ccc(-c2cncn2-c2ccc(-c3nc4cc(OC)c(OC)c(OC)c4s3)cc2)cc1N | EKVX | 7.54 µM |
| COc1cc(OC)c2sc(-c3ccc(-n4cncc4-c4cc(OC)c(OC)c(OC)c4)cc3)nc2c1 | EKVX | 5.09 µM |

----------
Test system: HCT-116
Test: SRB anticancer assay, colon
Assay type: cell-based, human
Settings: Homo sapiens, HCT-116, 48 h
A collection of compounds and their measured GI50
Readout name: GI50 (µM)

| Compound | Readout name | Reported |
| --- | --- | --- |
| COc1cc2nc(-c3ccc(-n4cncc4-c4ccc(N)cc4)cc3)sc2c(OC)c1OC [Compound 7h] | GI50 | 3.81 |
| COc1cc(OC)cc(-c2cncn2-c2ccc(-c3nc4cc(OC)cc(OC)c4s3)cc2)c1 [Compound 6d] | GI50 | 4.93 |
| COc1cc(OC)cc(-c2cncn2-c2ccc(-c3nc4cc(OC)c(OC)c(OC)c4s3)cc2)c1 [Compound 7d] | GI50 | 3.76 |
| COc1cc(OC)c2sc(-c3ccc(-n4cncc4-c4ccc(OC)c(OC)c4)cc3)nc2c1 [Compound 6e] | GI50 | 5.48 |
| COc1cc(-c2cncn2-c2ccc(-c3nc4ccc(F)cc4s3)cc2)ccc1F [Compound 4c] | GI50 | 4.36 |
| COc1cc(OC)c2sc(-c3ccc(-n4cncc4-c4cc(OC)c(OC)c(OC)c4)cc3)nc2c1 [Compound 6f] | GI50 | 3.92 |
| COc1ccc(-c2cncn2-c2ccc(-c3nc4cc(OC)c(OC)c(OC)c4s3)cc2)cc1N [Compound 7j] | GI50 | 3.78 |

Measured values drawn from patent US9187467B2 for this set.
